# assay-details: qHTS assay for identifying genotoxic compounds that show differential cytotoxicity against isogenic chicken DT40 cell lines with known DNA damage response pathways - Rev3 mutant cell line (AID 743014); also: potency is read from the fitted curve at half-maximal effect; nearly all actives have a fitted effect of over 55% in size
# condition: chicken DT40 Rev3-/- viability, CellTiter-Glo, 40 h; series mostly up to 68.4 µM
Records with an inconclusive call do not appear. The source made the active and inactive calls. Calls follow the shape of the dose curve; as a rule, active = well fitted cell-killing curve with a large enough effect in the repeat runs; inconclusive = weak or mixed curves, or effect the other way; inactive = no such curve, though single readings can be large or run the other way.
reported-endpoint: Potency

Would you please look over these solved cases?
- NCCCCCCNCCCCCCN: 6.75 µM (active)
- CN(C)c1ccc(N=NS(=O)(=O)O)cc1: 26.1 µM (active)
- O=C1NCN(c2ccccc2)C12CCN(CCCC(c1ccc(F)cc1)c1ccc(F)cc1)CC2: 10.6 µM (active)
- CCO[Si](CCCSSSSCCC[Si](OCC)(OCC)OCC)(OCC)OCC: 61.2 µM (active)
- CCCCCCCCCCCCCC[n+]1ccccc1: 0.077 µM (active)

Summary for this molecule, `Brc1ccccc1-c1ccccc1` : Potency is 41 µM (active)

Potency reading for COC(=O)C1=C(C)NC(C)=C(C(=O)OCCCN2CCC(c3ccccc3)(c3ccccc3)CC2)C1c1cccc([N+](=O)[O-])c1 (stereo not drawn) : 6.68 µM (active)
